Experiment: qHTS RealTime-Glo MT Cell Viability Assay in HEK293 cells - 16 hour (AID 1224872); note: top concentration of the series differs between compounds; % is set by controls: 0 for no effect and ±100 for the full control effect; nearly all actives have a fitted effect of over 50% in size
Details: RealTime-Glo luminescence; series mostly up to 76.8 µM
Results filed as inconclusive are left out. The source made the active and inactive calls. Calls come from the whole dose curve; as a rule, active = well fitted cell-killing curve with a large enough effect in the repeat runs; inconclusive = weak or mixed curves, or effect the other way; inactive = flat fitted curve, though single readings scatter.
RECORDED METRIC: activity change, negative = cytotoxicity

- CC(=O)NC(=O)c1ccccc1O: inactive
- COc1ccc2cc1Oc1cc3c(cc1OC)CC[N+](C)(C)[C@H]3Cc1ccc(cc1)Oc1c(OC)c(OC)cc3c1[C@@H](C2)[N+](C)(C)CC3: inactive
- NC(=O)Cc1cccc2ccccc12: inactive
- CO/N=C(\C(=O)N[C@@H]1C(=O)N2C(C(=O)O)=C(CSc3nc(=O)c(O)nn3C)CS[C@H]12)c1csc(N)n1: inactive
- [O-][n+]1cccc(CO)c1: inactive
- O=S(=O)(O)c1cccc2ccccc12: inactive

Then there is this molecule:
Please fill in: activity change, negative = cytotoxicity reported for CN1CCN(c2cc3c(nn2)Oc2ccccc2N3C)CC1 = 0.378% [at 15.8 µM] (inactive)
